Would you kindly list pA2-pA10 for each of these compounds?
# Target entity: Adrenergic receptor alpha-1 (Rattus norvegicus) (UniProt P15823+P23944+P43140)
# Protocol summary: Tested for Alpha adrenergic receptor antagonistic activity on isolated rat vas deferens
# Assay type: functional, tissue-based
Just the number, please, no unit attached.

pA2-pA10 reading for COc1ccc(OC)c(C2OCCNC2C)c1 (stereo unspecified) : 0.27

pA2-pA10 reading for COc1ccc(OC)c(C2CN(C)CCO2)c1 (stereo unspecified) : 0.76

pA2-pA10 reading for COc1ccc(OC)c(C(O)CN)c1 (stereo unspecified) [DESGLYMIDODRINE] : 0.74

pA2-pA10 reading for COc1ccc(OC)c(C2CN(C(C)C)CCO2)c1 (stereo unspecified) : 0.19

pA2-pA10 reading for COc1ccc(OC)c(C(O)CNC(C)C)c1 (stereo unspecified) : 0.26

pA2-pA10 reading for COc1ccc(OC)c(C2CNCCO2)c1 (stereo unspecified) : 0.45
